Entry source: ChEMBL document CHEMBL1144863

Target: Histone deacetylase
Experiment: In vitro inhibitory activity against histone deacetylase (HDAC) isolated from HeLa nuclear extract
Type: protein assay, Homo sapiens
quantity: IC50

# annotated cases, reported IC50 shown
Request: Please report IC50 for the following molecule: `CCOC(=O)NCCCCCCC(=O)Nc1ccccc1`
Response: > 100 µM

Request: Please report IC50 for the following molecule: `NNC(=O)NCCCCCCC(=O)Nc1ccccc1`
Response: 650 µM

Request: Please report IC50 for the following molecule: `O=C(CCCCCCC(=O)c1ccccn1)Nc1ccccc1`
Response: > 100 µM

Request: Please report IC50 for the following molecule: `O=C(CCCCCCC(=O)OCCO)Nc1ccccc1`
Response: > 100 µM

Request: Please report IC50 for the following molecule: `NNC(=O)NCCCCCC(=O)Nc1ccccc1`
Response: 150 µM

Request: Please report IC50 for the following molecule: `O=C(CCCCCCNC(=O)C(F)(F)F)Nc1ccccc1`
Response: > 100 µM

Next molecule, IC50 to be filled in.
Request: Please report IC50 for the following molecule: `O=C(CCCCCC/C(=N/O)c1ccccn1)Nc1ccccc1`
Response: > 100 µM

---

Biological target: Histone deacetylase (Homo sapiens) (UniProt Q13547+O15379+Q9UBN7+Q92769+Q9UQL6+Q8WUI4+Q9BY41+Q96DB2+P56524+Q9UKV0+Q969S8)
Conditions: at 100 µM
Description: In vitro inhibitory activity against histone deacetylase (HDAC) isolated from HeLa nuclear extract at a concentration of 100 uM
quantity: inhibition (%)

(a) NNC(=O)NCCCCCC(=O)Nc1ccccc1
(b) O=C(CCCCCCC(=O)Nc1ccccn1)Nc1ccccc1
Request: Lower value of inhibition belongs to which: a or b ? Kindly state the label of the option you pick.
Response: b
(b: 8%, a: 35%)

---

Target: Histone deacetylase
Assay: In vitro inhibitory activity against histone deacetylase (HDAC) isolated from HeLa nuclear extract
Assay type: protein assay, Homo sapiens
quantity: IC50

# annotated cases, reported IC50 shown
Request: Please report IC50 for the following compound: `O=C(CBr)NCCCCC(=O)Nc1ccccc1`
Response: 121 µM

Request: Please report IC50 for the following compound: `COC(=O)NCCCCCCC(=O)Nc1ccccc1`
Response: > 100 µM

Request: Please report IC50 for the following compound: `O=C(CBr)NCCCCCC(=O)Nc1ccccc1`
Response: 17 µM

Request: Please report IC50 for the following compound: `O=C(CCCCCCC(=O)Nc1nccs1)Nc1ccccc1`
Response: > 100 µM

Request: Please report IC50 for the following compound: `C#CCNCCCCCCC(=O)Nc1ccccc1`
Response: > 100 µM

***
Request: Please report IC50 for the following compound: `O=C(CBr)NCCCCCCCC(=O)Nc1ccccc1`
Response: 300 µM

Request: Please report IC50 for the following compound: `NC(=O)NCCCCCCC(=O)Nc1ccccc1`
Response: > 100 µM

Request: Please report IC50 for the following compound: `O=C(CCCCCCC(=O)Nc1ccccn1)Nc1ccccc1`
Response: > 100 µM

Request: Please report IC50 for the following compound: `NCCNC(=O)CCCCCCC(=O)Nc1ccccc1`
Response: > 100 µM

---

Target: Histone deacetylase
Assay: In vitro inhibitory activity against histone deacetylase (HDAC) isolated from HeLa nuclear extract
Assay type: protein assay, Homo sapiens
Let's look at some compounds and their measured IC50.

# annotated cases, reported IC50 shown
Request: Using Histone deacetylase as the test system, report measured IC50 of `Nc1ccccc1NC(=O)CCCCCCC(=O)Nc1ccccc1` .
Response: 120 µM

Request: Using Histone deacetylase as the test system, report measured IC50 of `O=C(CCCCCCC(=O)Nc1ccccc1)NCCO` .
Response: > 100 µM

***
Request: Using Histone deacetylase as the test system, report measured IC50 of `C#CCN(CC#C)CCCCCCC(=O)Nc1ccccc1` .
Response: > 100 µM

Request: Using Histone deacetylase as the test system, report measured IC50 of `O=C(CCCCCCNC(=O)C(Cl)(Cl)Cl)Nc1ccccc1` .
Response: > 100 µM

Request: Using Histone deacetylase as the test system, report measured IC50 of `O=C(CBr)NCCCCCCC(=O)Nc1ccccc1` .
Response: 14 µM

Request: Using Histone deacetylase as the test system, report measured IC50 of `NNC(=O)NCCCCC(=O)Nc1ccccc1` .
Response: > 1000 µM
